Experiment: Solubility in H2O, SGF and FaSSIF
Format: physicochemical
Experimental parameters: simulated gastric fluid (SGF), simulated gastric fluid, Simulated Gastric Fluid (SGF); read-out: Solubility
Structures can show the parent of a compound that is named as a salt.
Property: solubility (µg/mL)
The response must be a number in µg/mL with no trailing unit.

Form field solubility, entry CS[C@@]1(C(=O)Nc2ccc3[nH]nc(-c4ccc(OC(C)C)nc4)c3c2)CCN(CC(=O)N2CC=C(c3ccc(-c4ncn(C)n4)cc3)CC2)C1 [MK-A HCl salt] : 525

----------
Experiment: Log P (free base)
Assay type: physicochemical
Where a name gives a salt, the structure may show the parent alone.
Property: logP
Write the number on its own, no unit after it.

Reported logP ( CS[C@@]1(C(=O)Nc2ccc3[nH]nc(-c4ccc(OC(C)C)nc4)c3c2)CCN(CC(=O)N2CC=C(c3ccc(-c4ncn(C)n4)cc3)CC2)C1 [MK-A HCl salt] ) = 4.5
